This collection of values is drawn from paper PMC8620390.

# System: PC-3
# Assay Summary: Two-dose antiproliferative screening, SRB assay, PC-3
# Assay type: cell-based
# Conditions Used: Homo sapiens, PC-3, 72 h, 10 μM, triplicates, read-out: Growth Inhibition (%) PC-3 10 μM Average
yes means recorded inhibition at 10 µM is 20% or above; no means it is below 20%.

Query: Reported inhibition at 10 µM reaches at least 20% for COc1cc(/C=C2/C(=O)Nc3ccc(F)cc32)cc(OC)c1OC ?
Reply: no

Query: Do the same for COc1cc(OC)c(/C=C2/C(=O)N(Cc3ccc(Cl)cc3)c3ccccc32)c(OC)c1 please
Reply: no

Query: Do the same for COc1cc(OC)c(/C=C2/C(=O)Nc3ccc(OC)cc32)c(OC)c1 please
Reply: yes

Query: Do the same for COc1cc(/C=C2/C(=O)N(Cc3ccccc3)c3ccccc32)cc(OC)c1OC please
Reply: no

Query: Do the same for COc1cc(OC)c(/C=C2/C(=O)Nc3ccc(Cl)cc32)c(OC)c1 please
Reply: yes

Query: Do the same for COc1cc(/C=C2/C(=O)N(CC(=O)OC(C)(C)C)c3cc(Cl)ccc32)cc(OC)c1OC please
Reply: no

----------
Hi there, I'd appreciate the recorded melting point for every entry that follows.

Query: Recorded melting point for COc1cc(/C=C2/C(=O)N(CC(=O)OC(C)(C)C)c3cc(Cl)ccc32)cc(OC)c1OC [Compound 9a] , please?
Reply: 82 to 85 °C

Query: Do the same for COc1cc(OC)c(/C=C2/C(=O)Nc3ccc(F)cc32)c(OC)c1 [Compound 4d] please
Reply: 212 to 215 °C

Query: Do the same for CCOC(=O)CN1C(=O)/C(=C/c2cc(OC)c(OC)c(OC)c2)c2ccc(Cl)cc21 [Compound 9b] please
Reply: 60 to 62 °C

Query: Do the same for COc1cc(OC)c(/C=C2/C(=O)Nc3ccc(OC)cc32)c(OC)c1 [Compound 4e] please
Reply: 221 to 223 °C

Query: Do the same for COc1cc(OC)c(/C=C2/C(=O)Nc3ccc(Cl)cc32)c(OC)c1 [Compound 4c] please
Reply: 244 to 247 °C

----------
# Tested on: PC-3
# Assay Summary: Two-dose antiproliferative screening, SRB assay, PC-3
# Assay type: cell-based
# Conditions Used: Homo sapiens, PC-3, 72 h, 10 μM, triplicates, read-out: Growth Inhibition (%) PC-3 10 μM Average
Hi there, I'd appreciate the recorded inhibition at 10 µM for every entry that follows.
Quick reminder: number only, in %, skip the unit.

Query: Recorded inhibition at 10 µM for COc1cc(/C=C2/C(=O)Nc3ccccc32)cc(OC)c1OC , please?
Reply: 20.4

Query: Do the same for COc1cc(OC)c(/C=C2/C(=O)N(Cc3ccccc3)c3cc(Cl)ccc32)c(OC)c1 please
Reply: 19.9
